experiment-notes: Solubility of bilastine after heating the slurry with acid at 95° C. and cooling (Method 2), HPLC-PDA
Type: physicochemical
cond: water acidified with D,L-tartaric acid, aqueous buffer, thermodynamic from solid; D,L-tartaric acid, pH 4.3, 95° C. 2 h, filtrate stood overnight at room temperature

compound-smiles	solubility at 2 h / µg/mL
CCOCCn1c(C2CCN(CCc3ccc(C(C)(C)C(=O)O)cc3)CC2)nc2ccccc21	2700

====

experiment-notes: Aqueous solubility of bilastine in the pH range 5-8
Type: physicochemical
cond: water, aqueous buffer
Protocol: The above benzimidazole compounds with selective H1 antihistaminic activity present low solubility in water, which impedes the development of pharmaceutically acceptable means of administering said compounds in liquid form. For example, the solubility of bilastine in the pH range 5-8 is around 500 μg/mL.
measured-parameter: solubility

compound-smiles	measured-parameter	measured
CCOCCn1c(C2CCN(CCc3ccc(C(C)(C)C(=O)O)cc3)CC2)nc2ccccc21	solubility	~500 µg/mL

Data credit: patent US20180344854A1
